# ASSAY_SYSTEM: EGFR WT (Homo sapiens, UniProt P00533)
# Sequence (P00533 25-1210 N540K): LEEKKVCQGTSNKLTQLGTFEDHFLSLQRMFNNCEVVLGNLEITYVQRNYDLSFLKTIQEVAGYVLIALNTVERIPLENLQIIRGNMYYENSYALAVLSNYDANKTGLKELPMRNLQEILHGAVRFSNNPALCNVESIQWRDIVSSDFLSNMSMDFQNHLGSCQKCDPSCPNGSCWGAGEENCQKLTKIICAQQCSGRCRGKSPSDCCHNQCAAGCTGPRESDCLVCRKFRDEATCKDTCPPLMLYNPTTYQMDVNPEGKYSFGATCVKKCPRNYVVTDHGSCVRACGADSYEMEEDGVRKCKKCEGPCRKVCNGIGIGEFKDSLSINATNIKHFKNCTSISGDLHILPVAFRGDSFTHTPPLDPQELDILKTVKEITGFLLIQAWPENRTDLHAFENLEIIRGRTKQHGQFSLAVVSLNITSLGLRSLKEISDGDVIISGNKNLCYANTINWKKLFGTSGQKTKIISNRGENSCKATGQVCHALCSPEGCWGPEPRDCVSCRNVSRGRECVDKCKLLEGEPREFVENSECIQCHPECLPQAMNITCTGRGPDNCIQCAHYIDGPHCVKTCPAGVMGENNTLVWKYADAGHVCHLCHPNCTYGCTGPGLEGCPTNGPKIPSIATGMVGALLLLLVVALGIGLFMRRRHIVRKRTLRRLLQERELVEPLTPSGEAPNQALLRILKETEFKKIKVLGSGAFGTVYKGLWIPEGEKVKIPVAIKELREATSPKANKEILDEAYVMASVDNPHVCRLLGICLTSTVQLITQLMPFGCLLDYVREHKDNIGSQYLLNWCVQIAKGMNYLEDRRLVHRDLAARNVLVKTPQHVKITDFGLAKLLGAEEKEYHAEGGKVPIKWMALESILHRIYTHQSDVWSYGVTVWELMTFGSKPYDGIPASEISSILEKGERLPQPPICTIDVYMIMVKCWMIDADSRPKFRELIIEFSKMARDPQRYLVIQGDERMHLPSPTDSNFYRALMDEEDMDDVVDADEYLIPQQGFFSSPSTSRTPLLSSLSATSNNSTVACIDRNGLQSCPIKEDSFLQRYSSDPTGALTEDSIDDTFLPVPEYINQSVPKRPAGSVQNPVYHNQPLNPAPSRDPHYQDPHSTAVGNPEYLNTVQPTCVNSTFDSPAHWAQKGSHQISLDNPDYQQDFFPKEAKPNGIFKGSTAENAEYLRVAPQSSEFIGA
# PROTOCOL: Activity for inhibiting EGFR (Table A), EGFR WT
# Type: cell-based
# CONDITION_LABEL: read-out: EGFR WT, potency code (IC50)
pIC50: −log10 of the molar value.
Reported pIC50 by item:

Example entries and their recorded answers appear below.
>>> endpoint_value("C=CC(=O)Nc1cc2c(Nc3ccc(Oc4ccccc4)cc3)ncnc2cc1OCCN1CCOCC1")
"< 6.00"
>>> endpoint_value("C=CC(=O)Nc1cc2c(Nc3ccc(OCc4ccccn4)cc3)ncnc2cc1OCCN1CC2CN(C)CC2C1 (stereo not shown)")
"6.52 to 6.70"
>>> endpoint_value("C=CC(=O)Nc1cc2c(Nc3ccc(Oc4ccccc4)c(C)c3)ncnc2cc1C#C[C@@H]1[C@H]2CN(C)C[C@@H]12")
"6.00 to 6.30"

Next molecule, please.
Query block: Please supply the value of reported pIC50 for the item C=CC(=O)Nc1cc2c(Nc3ccc(OCc4ccccn4)c(Cl)c3)ncnc2cc1OCCN1CCC2C1CCN2C (stereo not shown)
Result block: 6.70 to 7.00

Origin of measurements: patent US11034672B1
